# procedure summary: qHTS for Inhibitors of human tyrosyl-DNA phosphodiesterase 1 (TDP1): qHTS in cells in absence of CPT; further: nearly all actives have a fitted effect of over 55% in size
# test conditions: DT40 Tdp1-/- hTDP1 cells, no CPT, ATP luminescence, 48 h
About 64,000 (15%) of roughly 420,000 compounds were called active. Another 27% or so got no clear call; they are omitted. The call rests on the fitted dose curve; in most records, active means well fitted inhibition curve with a large enough effect; inconclusive means small, poorly fitted or top-dose-only effect; inactive means flat fitted curve, though single readings scatter. Only a sample is shown.
Classes used: active, inactive

# compound, class assignment
rows = [
    ("CNC(=O)C(NC(=O)c1ccccc1)=C(C)C", "inactive"),
    ("CC(=O)/C(C)=N\\O", "inactive"),
    ("COCC1CCCN(Cc2ccc3c(c2)CN(C(=O)c2ccnn2C)CCO3)C1 (stereo not drawn)", "inactive"),
    ("CCOC(=O)N1CCN(C(=O)c2ccc3c(c2)N(Cc2ccc(C)cc2)CCS3)CC1", "active"),
    ("CCn1nnnc1SCC(=O)c1ccc(C)cc1C", "inactive"),
    ("COC(=O)C1(S(=O)(=O)C2(C(=O)OC)CCCC2)CCCC1", "inactive"),
    ("COc1ccc(S(=O)(=O)Nc2cccnc2)c(Cl)c1Cl", "inactive"),
    ("COC(=O)C1=CO[C@@H](O[C@@H]2O[C@H](CO)[C@@H](O)[C@H](O)[C@H]2O)C2C1C[C@H](O)[C@@H]2C (stereo partly drawn)", "inactive"),
    ("CCOC(=O)N1CCN(C(=O)c2cnc3n(c2=O)CCS3)CC1", "inactive"),
    ("COc1ccccc1-c1nnc(SCC(=O)Nc2cc(C)on2)o1", "inactive"),
    ("CCCCC(O)(CCCC)C(=O)NN(C(=O)CCl)c1ccccc1", "active"),
    ("Cc1cccc(N=C2NN=C(c3c[nH]c4ccccc34)CS2)c1", "inactive"),
    ("COC(=O)N(NC(=O)C(O)(C(C)C)C(C)C)c1ccccc1", "inactive"),
    ("COc1cc(OC)c(C(=O)N2CCCC2)cc1OC", "inactive"),
    ("CC1CC(C)CN(CCC(=O)Nc2ccc3c(c2)CCC3)C1 (stereo not drawn)", "inactive"),
    ("COc1ccc(-c2cc(=O)oc3cc(OC(C)C(=O)NCC4CCC(C(=O)O)CC4)ccc23)cc1 (stereo not drawn)", "inactive"),
    ("COc1ccccc1C(=O)NCCC(=O)N(C)Cc1cccnc1", "inactive"),
    ("O=C(NCC(O)c1nc2ccccc2[nH]1)c1ccc(Br)cc1 (stereo not drawn)", "inactive"),
    ("CCOC(=O)N1CCN(C(=O)c2ccc(S(=O)(=O)c3ccc(C)cc3)c(NC(C)=O)c2)CC1", "inactive"),
    ("CCOC(=O)C=Cc1ccc(C(=O)OCC)[nH]1", "active"),
    ("Cc1c(CNCCc2ccccc2)c(C(=O)O)c(C)n1-c1ccccc1", "inactive"),
    ("O=C(CNc1ccc(F)cc1F)NC(=O)NCc1ccco1", "inactive"),
    ("CC(Oc1ccc(Cl)cc1)C(=O)Nc1ncccn1 (stereo not drawn)", "inactive"),
]
